Kindly state IL-1β IC50 for each of the entries shown.
# Target: human IL-1β (human, UniProt P01584 117-269)
# Protocol Description: cell-based or functional assay
Write the answer as a number in pM, unit excluded.

Exam item: Which measured IL-1β IC50 value corresponds to ABT2-108-538x/ABT1-221 huIgG1/K wt (bispecific antibody, V domains shown) VH: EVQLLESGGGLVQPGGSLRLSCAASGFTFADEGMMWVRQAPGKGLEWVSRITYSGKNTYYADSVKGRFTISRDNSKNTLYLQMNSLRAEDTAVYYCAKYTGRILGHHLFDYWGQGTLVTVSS VL: DIQMTQSPSSLSASVGDRVTITCRASQDIWPYLMWYQQKPGKAPKLLIYYSSMLQSGVPSRFSGSGSGTDFTLTISSLQPEDFATYYCQQFRRWPYTFGQGTKVEIKR ?
Marked response: 10

Exam item: Which measured IL-1β IC50 value corresponds to ABT2-108-518/ABT1-122 hu IgG1/K wt (bispecific antibody, V domains shown) VH: EVQLLESGGGLVQPGGSLRLSCAASGFTFAEYTMMWVRQAPGKGLEWVSRIGQDGKNTYYRMDVKGRFTISRDNSKNTLYLQMNSLRAEDTAVYYCAKYTGRVGVHHLFDYWGQGTLVTVSS VL: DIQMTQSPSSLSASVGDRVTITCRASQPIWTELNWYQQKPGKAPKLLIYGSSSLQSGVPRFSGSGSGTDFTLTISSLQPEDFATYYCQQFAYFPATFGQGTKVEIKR ?
Marked response: 500

Exam item: Which measured IL-1β IC50 value corresponds to ABT2-65-166/ABT1-95-A6 hu IgG1/K wt (bispecific antibody, V domains shown, hu IgG1/K wt; also called 1-95-A6 / 2-65-166) VH: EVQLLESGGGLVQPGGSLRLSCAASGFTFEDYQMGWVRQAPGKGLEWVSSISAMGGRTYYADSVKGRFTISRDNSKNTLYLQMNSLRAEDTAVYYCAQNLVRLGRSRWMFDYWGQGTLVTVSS VL: DIQMTQSPSSLSASVGDRVTITCRASKPGVRNMRWYQQKPGKAPKLLIYAKSYLEPGVPSRFSGSGSGTDFTLTISSLQPEDFATYHCKQGYRWPVQFGQGTKVEIKR ?
Marked response: 320

Exam item: Which measured IL-1β IC50 value corresponds to ABT2-65-8/ABT1-141 hu IgG1/K wt (bispecific antibody, V domains shown) VH: EVQLLESGGGLVQPGGSLRLSCAASGFTFEDYQMGWVRQAPGKGLEWVSSISAMGNRTYYADSVKGRFTISRDDSKNTLYLQMNSLRAEDTAVYYCAQNLVRMDSRRWMFDYWGQGTLVTVSS VL: DIQMTQSPSSLSASVGDRVTITCRASQWIQKQLAWYQQKPGKAPKLLIYSSSYLQSGVPRFSGSGSGTDFTLTISSLQPEDFATYYCQQHLRVPFTFGQGTKVEIKR ?
Marked response: 90

Exam item: Which measured IL-1β IC50 value corresponds to ABT2-108/ABT1-122-556 hu IgG1/K wt (bispecific antibody, V domains shown) VH: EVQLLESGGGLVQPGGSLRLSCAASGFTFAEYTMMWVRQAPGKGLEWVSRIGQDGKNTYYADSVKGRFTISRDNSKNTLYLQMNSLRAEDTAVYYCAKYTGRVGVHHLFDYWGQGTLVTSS VL: DIQMTQSPSSLSASVGDRVTITCRASQPIWTELNWYQQKPGKAPKLLIYGSSSLQSGVPSRFSGSGSGTDFTLTISSLQPEDFATYHCQQFAYFPATFGQGTKVEIKR ?
Marked response: 15000
